Values were extracted from patent EP0299434B1.

Procedure Summary: solution pKa (pH at which the solubility versus pH curve changes slope)
Type: physicochemical
Cond: ion exchange eluate evaporated at 60°C, ion exchange eluate evaporated at 60°C (Example 6)
Measured Metric: pKa

IN: # query: pKa of entry "N[C@@H](Cc1c[nH]c2ccccc12)C(=O)O"
OUT: ~8.2
